# procedure summary: Metabolic stability test in liver S9 (Test Example [2])
# Assay type: in vitro ADME, human
# assay context: human liver S9 2 mg protein/mL, 37° C., 60 minutes of incubation vs 0 minute
Provide the recorded Human liver S9 remaining ratio for the entries that follow.
Answers are plain numbers, in %.

A selection of reference data follows.
Cc1ccc(N2c3cccc(C(=O)Nc4cc(F)c(OC(C)C)c(F)c4)c3OC[C@@H]2CO)nc1	65.3
O=C(Nc1cc(Cl)cc(Cl)c1)c1cccc2c1OCCN2c1ncc(CO)cc1Cl	64.9
Cc1ccc(N2c3cccc(C(=O)Nc4ccc(OC(C)(C)C)c(F)c4)c3OC[C@@H]2CO)nc1	91.3

Notebook: Cc1ccc(N2c3cccc(C(=O)Nc4ccc(C(F)(F)F)cc4)c3OC[C@@H]2CO)nc1 , Human liver S9 remaining ratio read as 55.1
